# MEASUREMENT_NOTES: Thioether (C-S) macrocyclisation: SN2' of the free C-terminal Cys-NH2 thiol on an N-terminal O-acetyl Morita-Baylis-Hillman (2-methylene-3-acetoxyacyl) residue, Et3N 3% v/v, 48 h; crude cleaved linear peptides
# CONDITION_DESCRIPTION: the molecule shown is the open-chain precursor, 16-membered ring, dry THF/CH2Cl2 1:1, 1.0 mM, 25.0 °C, 11 steps
RESULT_TYPE: ring closure, overall yield (%)
The reply should contain only the number, in %.

# annotated cases, reported ring closure, overall yield shown
C=C(C(=O)N[C@@H](C)C(=O)N[C@@H](CC(C)C)C(=O)N[C@@H](Cc1ccccc1)C(=O)N[C@@H](CS)C(N)=O)C(C)OC(C)=O (stereo partly shown): 14.8
C=C(C(=O)N[C@@H](Cc1ccccc1)C(=O)N[C@@H](CC(C)C)C(=O)N[C@@H](C)C(=O)N[C@@H](CS)C(N)=O)C(C)OC(C)=O (stereo partly shown): 10.2
C=C(C(=O)N[C@@H](Cc1ccccc1)C(=O)N[C@H](CC(C)C)C(=O)N[C@@H](C)C(=O)N[C@@H](CS)C(N)=O)C(C)OC(C)=O (stereo partly shown): 14.4

Now look at this one.
Query: I would be grateful if you could share the reported ring closure, overall yield for C=C(C(=O)N[C@@H](Cc1ccccc1)C(=O)N[C@H](CC(C)C)C(=O)N[C@H](C)C(=O)N[C@@H](CS)C(N)=O)C(CCCCCC)OC(C)=O (stereo partly drawn) [n-C6H13CH(OAc)C(=CH2)CO-Phe-D-Leu-D-Ala-Cys-NH2] .
Reply: 11.8

----------
# MEASUREMENT_NOTES: Thioether (C-S) macrocyclisation: SN2' of the free C-terminal Cys-NH2 thiol on an N-terminal O-acetyl Morita-Baylis-Hillman (2-methylene-3-acetoxyacyl) residue, Et3N 3% v/v, 48 h; crude cleaved linear peptides
# CONDITION_DESCRIPTION: the molecule shown is the open-chain precursor, 16-membered ring, dry THF/CH2Cl2 1:1, 1.0 mM, 25.0 °C, 11 steps
RESULT_TYPE: ring closure, overall yield (%)
The reply should contain only the number, in %.

# annotated cases, reported ring closure, overall yield shown
C=C(C(=O)N[C@@H](Cc1ccccc1)C(=O)N[C@@H](CC(C)C)C(=O)N[C@H](C)C(=O)N[C@@H](CS)C(N)=O)C(C)OC(C)=O (stereo partly drawn): 2.7
C=C(C(=O)N[C@@H](Cc1ccccc1)C(=O)N[C@H](CC(C)C)C(=O)N[C@H](C)C(=O)N[C@@H](CS)C(N)=O)C(C)OC(C)=O (stereo partly drawn): 7.3

Query: I would be grateful if you could share the reported ring closure, overall yield for C=C(C(=O)N[C@@H](Cc1ccccc1)C(=O)N[C@@H](CC(C)C)C(=O)N[C@H](C)C(=O)N[C@@H](CS)C(N)=O)C(CCCCCC)OC(C)=O (stereo partly drawn) [n-C6H13CH(OAc)C(=CH2)CO-Phe-Leu-D-Ala-Cys-NH2] .
Reply: 4.7
